test: in vivo; conditions: rat, in vivo
Measured selectivity ratio values are reported for all entries that follow.
readout.type: selectivity ratio

> print(dat)
                                smiles.repr  readout.number
1                     CC(=O)Oc1ccccc1C(=O)O               2
2        CC(C)c1c(C(=O)c2cccnc2)c2ccccc2n1C              20
3  COc1ccc2c(c1)c(CC(=O)O)c(C)n2C(=O)c1ccc(Cl)cc1             1.3
